Species: Rattus norvegicus
Procedure details: Open TG-GATES - Regimen: Daily Repeat
Type: toxicity, organism-based, Sprague-Dawley
Parameters: regimen Daily Repeat, gender Male, age 6 weeks
Condition: in vivo, po, 0 mg/kg, […], tissue Blood, route gavage, dose level Control, time 7 day
Test readout: Bas
Could you give the number and then its unit, please?

CCCNC(=O)NS(=O)(=O)c1ccc(Cl)cc1 [CHLORPROPAMIDE] :: 0.2%
CN1C(=O)CN=C(c2ccccc2)c2cc(Cl)ccc21 [DIAZEPAM] :: 0%
NC(N)=Nc1nc(CSCCC(N)=NS(N)(=O)=O)cs1 [FAMOTIDINE] :: 0%
COc1ccc2[nH]c([S+]([O-])Cc3ncc(C)c(OC)c3C)nc2c1 (stereo not given) [OMEPRAZOLE] :: 0%

// switching to the query molecule
**Query** # query: Bas of entry CN(C)CCCN1c2ccccc2CCc2ccccc21 [IMIPRAMINE]
**Result** 0.2%

###

Species: Rattus norvegicus
Procedure details: Open TG-GATES - Regimen: Daily Repeat
Format: toxicity, organism-based, Sprague-Dawley
Parameters: regimen Daily Repeat, gender Male, age 6 weeks
Condition: in vivo, po, 0 mg/kg, […], tissue Plasma, route gavage, dose level Control, time 28 day
Test readout: DBIL (mg/dL)
Answers are plain numbers, in mg/dL.

The cases that follow already have their DBIL on record.
O=C(CCCN1CCC(O)(c2ccc(Cl)cc2)CC1)c1ccc(F)cc1 [HALOPERIDOL] :: 0.052
COC1=CC(=O)C[C@@H](C)[C@]12Oc1c(Cl)c(OC)cc(OC)c1C2=O [GRISEOFULVIN] :: 0.078
COc1ccc2[nH]c([S+]([O-])Cc3ncc(C)c(OC)c3C)nc2c1 (stereo not given) [OMEPRAZOLE] :: 0.078
CC(C)OC(=O)C(C)(C)Oc1ccc(C(=O)c2ccc(Cl)cc2)cc1 [FENOFIBRATE] :: 0.012

Next item in the queue.
**Query** Name the reported DBIL value associated with the compound CCCNC(=O)NS(=O)(=O)c1ccc(Cl)cc1 [CHLORPROPAMIDE]
**Result** 0.01

###

Provide the recorded Ht for the entries that follow.
Species on record: Rattus norvegicus
Procedure details: Open TG-GATES - Regimen: Single
Format: toxicity, organism-based, Sprague-Dawley
Design: regimen Single, gender Male, age 6 weeks
Condition: in vivo, po, 1000 mg/kg, 6 h, tissue Blood, route gavage, dose level High
Give bare numbers, in %.

For each of the compounds below, state Ht.
1. COc1ccc2[nH]c([S+]([O-])Cc3ncc(C)c(OC)c3C)nc2c1 (stereo not given) [OMEPRAZOLE]
2. NC(N)=Nc1nc(CSCCC(N)=NS(N)(=O)=O)cs1 [FAMOTIDINE]
3. CC(C)OC(=O)C(C)(C)Oc1ccc(C(=O)c2ccc(Cl)cc2)cc1 [FENOFIBRATE]
4. COC1=CC(=O)C[C@@H](C)[C@]12Oc1c(Cl)c(OC)cc(OC)c1C2=O [GRISEOFULVIN]
5. CCOC(=O)CCC(=O)O[C@H]1[C@H](O[C@@H]2[C@@H](C)[C@H](O[C@H]3C[C@@](C)(OC)[C@@H](O)[C@H](C)O3)[C@@H](C)C(=O)O[C@H](CC)[C@@](C)(O)[C@H](O)[C@@H](C)C(=O)[C@H](C)C[C@@]2(C)O)O[C@H](C)C[C@@H]1N(C)C [ERYTHROMYCIN ETHYLSUCCINATE]

**Result**
[37.2, 37.7, 39.6, 37.4, 40.7]

###

What APTT was measured for each of the following?
Species: Rattus norvegicus
Procedure details: Open TG-GATES - Regimen: Daily Repeat
Type: toxicity, organism-based, Sprague-Dawley
Parameters: regimen Daily Repeat, gender Male, age 6 weeks
Condition: in vivo, po, 300 mg/kg, 72 h, tissue Blood, route gavage, dose level Middle, time 3 day
Give bare numbers, in s.

Look over these answered cases.
COC1=CC(=O)C[C@@H](C)[C@]12Oc1c(Cl)c(OC)cc(OC)c1C2=O [GRISEOFULVIN] :: 19.9
CCOC(=O)CCC(=O)O[C@H]1[C@H](O[C@@H]2[C@@H](C)[C@H](O[C@H]3C[C@@](C)(OC)[C@@H](O)[C@H](C)O3)[C@@H](C)C(=O)O[C@H](CC)[C@@](C)(O)[C@H](O)[C@@H](C)C(=O)[C@H](C)C[C@@]2(C)O)O[C@H](C)C[C@@H]1N(C)C [ERYTHROMYCIN ETHYLSUCCINATE] :: 21.3
COc1ccc2[nH]c([S+]([O-])Cc3ncc(C)c(OC)c3C)nc2c1 (stereo not given) [OMEPRAZOLE] :: 19.8

Can you give me APTT for all of these, one by one?
1. CCOc1ccc(NC(=O)CC(C)O)cc1 (stereo not given) [BUCETIN]
2. NC(N)=Nc1nc(CSCCC(N)=NS(N)(=O)=O)cs1 [FAMOTIDINE]

**Result**
18.9
21.2

###

Species: Rattus norvegicus
Procedure details: Open TG-GATES - Regimen: Daily Repeat
Type: toxicity, organism-based, Sprague-Dawley
Design: regimen Daily Repeat, gender Male, age 6 weeks
Condition: in vivo, po, 0 mg/kg, […], tissue Blood, route gavage, dose level Control, time 7 day
Test readout: Lym (%)
One number for each entry, in %.

Below, 6 compounds whose answers are already recorded.
O=C(CCCN1CCC(O)(c2ccc(Cl)cc2)CC1)c1ccc(F)cc1 [HALOPERIDOL] :: 80.4
CCOC(=O)CCC(=O)O[C@H]1[C@H](O[C@@H]2[C@@H](C)[C@H](O[C@H]3C[C@@](C)(OC)[C@@H](O)[C@H](C)O3)[C@@H](C)C(=O)O[C@H](CC)[C@@](C)(O)[C@H](O)[C@@H](C)C(=O)[C@H](C)C[C@@]2(C)O)O[C@H](C)C[C@@H]1N(C)C [ERYTHROMYCIN ETHYLSUCCINATE] :: 78.2
CCOc1ccc(NC(=O)CC(C)O)cc1 (stereo not drawn) [BUCETIN] :: 81.2
CC1=C(/C=C/C(C)=C/C=C/C(C)=C/CO)C(C)(C)CCC1 [RETINOL] :: 79.6
NNC(=O)c1ccncc1 [ISONIAZID] :: 76.8
CN1C(=O)CN=C(c2ccccc2)c2cc(Cl)ccc21 [DIAZEPAM] :: 79.2

The following compounds each have a reported value; give each one's Lym.
1. NC(N)=Nc1nc(CSCCC(N)=NS(N)(=O)=O)cs1 [FAMOTIDINE]
2. COc1ccc2[nH]c([S+]([O-])Cc3ncc(C)c(OC)c3C)nc2c1 (stereo not drawn) [OMEPRAZOLE]

**Result**
1: 80.4; 2: 79.2

###

Species: Rattus norvegicus
Procedure details: Open TG-GATES - Regimen: Daily Repeat
Format: toxicity, organism-based, Sprague-Dawley
Set-up: regimen Daily Repeat, gender Male, age 6 weeks
Condition: in vivo, po, 100 mg/kg, […], tissue Plasma, route gavage, dose level Low, time 7 day
Test readout: LDH (IU/L)
Give bare numbers, in IU/L.

Answer for every listed entry: what is its LDH? The entries follow.
1. CCOc1ccc(NC(=O)CC(C)O)cc1 (stereo not given)
2. NC(N)=Nc1nc(CSCCC(N)=NS(N)(=O)=O)cs1
3. CCOC(=O)CCC(=O)O[C@H]1[C@H](O[C@@H]2[C@@H](C)[C@H](O[C@H]3C[C@@](C)(OC)[C@@H](O)[C@H](C)O3)[C@@H](C)C(=O)O[C@H](CC)[C@@](C)(O)[C@H](O)[C@@H](C)C(=O)[C@H](C)C[C@@]2(C)O)O[C@H](C)C[C@@H]1N(C)C [ERYTHROMYCIN ETHYLSUCCINATE]
4. COc1ccc2[nH]c([S+]([O-])Cc3ncc(C)c(OC)c3C)nc2c1 (stereo not given)

**Result**
[103.8, 205.2, 129, 229.6]

**Query** # query: LDH of entry "COC1=CC(=O)C[C@@H](C)[C@]12Oc1c(Cl)c(OC)cc(OC)c1C2=O"
**Result** 162.6

###

Organism: Rattus norvegicus
Procedure details: Open TG-GATES - Regimen: Daily Repeat
Type: toxicity, organism-based, Sprague-Dawley
Design: regimen Daily Repeat, gender Male, age 6 weeks
Condition: in vivo, po, 10 mg/kg, […], tissue Blood, route gavage, dose level Low, time 28 day
Can you tell me Ret for the items I'm about to list?
Numbers only, in %.

CN(C)CCN(Cc1cccs1)c1ccccn1 :: 2.6
CC1=C(/C=C/C(C)=C/C=C/C(C)=C/CO)C(C)(C)CCC1 [RETINOL] :: 2.4
CC(C)OC(=O)C(C)(C)Oc1ccc(C(=O)c2ccc(Cl)cc2)cc1 [FENOFIBRATE] :: 2.1

**Query** Which value of Ret has been reported for CN(C)CCCN1c2ccccc2CCc2ccccc21 [IMIPRAMINE] in the records?
**Result** 2.3
